# Test target: Leukotriene B4 receptor (Cavia porcellus)
# Test method notes: Binding affinity towards Leukotriene B4 receptor guinea pig lung membrane using [3H]LTB4 as radioligand
Reported property: Ki (nM)

> print(dat)
                                smiles.text  observed.result
1  CCc1cc(-c2ccc(F)cc2)c(O)cc1OCCCOc1ccccc1CCc1nnn[nH]1               15
2  CCc1cc(-c2ccccc2)c(O)cc1OCCCOc1ccc2c(=O)c3ccccc3oc2c1CCC(=O)O               12

[P] CCCCc1c(OCCCOc2cc(O)c(-c3ccc(F)cc3)cc2CC)cccc1Oc1ccccc1C(=O)O
[Q] CCc1cc(-c2ccc(F)cc2)c(O)cc1OCCCOc1ccc2c(=O)c3cc(C(=O)O)ccc3oc2c1CCC(=O)O
[R] CCc1cc(-c2ccc(F)cc2)c(O)cc1OCCCOc1ccc2c(=O)c3ccccc3oc2c1CCC(=O)O
Exercise: Order these by Ki, descending, and give the full ranking. Use the labels to give the ranking in the order requested.
Key: P, R, Q
(P: 16 nM, R: 4 nM, Q: 0.04 nM)

Sourced from ChEMBL document CHEMBL1128176
